assay: Concentration displacing [3H]sradipine binding to rat heart.
pKi: −log10 of the molar value.
List of pKi values.
Measured quantity: pKi

[
  {
    "Compound": "CO/C(O)=C1\\C(C)=NC(C)=C(C(=O)OC[C@H]2CCCO2)[C@@H]1c1ccccc1[N+](=O)[O-]",
    "Measured quantity": "pKi",
    "Value": 8.23
  },
  {
    "Compound": "COC(=O)C1=C(C)NC(C)=C(C(=O)OC[C@H]2CCCO2)[C@H]1c1ccccc1[N+](=O)[O-] (stereo in doubt)",
    "Measured quantity": "pKi",
    "Value": 9.00
  },
  {
    "Compound": "CO/C(O)=C1\\C(C)=NC(C)=C(C(=O)OC[C@@H]2CCCO2)[C@H]1c1ccccc1[N+](=O)[O-]",
    "Measured quantity": "pKi",
    "Value": 9.22
  },
  {
    "Compound": "COC(=O)C1=C(C)NC(C)=C(C(=O)OC[C@@H]2CCCO2)[C@@H]1c1ccccc1[N+](=O)[O-] (stereo in doubt)",
    "Measured quantity": "pKi",
    "Value": 7.89
  }
]

====

assay: Concentration displacing [3H]-sradipine binding to rat brain; format: tissue-based
Recorded Ki by entry

[
  {
    "Molecule": "COC(=O)C1=C(C)NC(C)=C(C(=O)OC[C@H]2CCCO2)[C@H]1c1ccccc1[N+](=O)[O-] (stereo in doubt)",
    "Value unit": "nM",
    "Ki": 0.67
  },
  {
    "Molecule": "CO/C(O)=C1\\C(C)=NC(C)=C(C(=O)OC[C@H]2CCCO2)[C@@H]1c1ccccc1[N+](=O)[O-]",
    "Value unit": "nM",
    "Ki": 17.7
  }
]

====

organism: Rattus norvegicus; assay: Effect on [3H]sradipine binding to rat heart.
# Bmax per record follows

[
  {
    "Compound": "CO/C(O)=C1\\C(C)=NC(C)=C(C(=O)OC[C@H]2CCCO2)[C@@H]1c1ccccc1[N+](=O)[O-]",
    "Bmax (fmol/mg)": 81.4
  },
  {
    "Compound": "COC(=O)C1=C(C)NC(C)=C(C(=O)OC[C@@H]2CCCO2)[C@@H]1c1ccccc1[N+](=O)[O-] (stereo in doubt)",
    "Bmax (fmol/mg)": 65.3
  },
  {
    "Compound": "CO/C(O)=C1\\C(C)=NC(C)=C(C(=O)OC[C@@H]2CCCO2)[C@H]1c1ccccc1[N+](=O)[O-]",
    "Bmax (fmol/mg)": 74.9
  }
]

====

assay: Concentration displacing [3H]sradipine binding to rat brain.; type: tissue-based
pKi: −log10 of the molar value.
Measured quantity: pKi

[
  {
    "Structure notation": "CO/C(O)=C1\\C(C)=NC(C)=C(C(=O)OC[C@@H]2CCCO2)[C@H]1c1ccccc1[N+](=O)[O-]",
    "Value": 9.24
  }
]

====

assay: Concentration inhibiting [3H]sradipine binding to rat brain.; assay type: tissue-based
pKi: −log10 of the molar value.

[
  {
    "Compound": "COC(=O)C1=C(C)NC(C)=C(C(=O)OC[C@@H]2CCCO2)[C@@H]1c1ccccc1[N+](=O)[O-] (stereo in doubt)",
    "pKi": 7.74
  }
]
